Data origin: patent US9102648B1

# measured-on: GAL4 DBD (1-147)-CfEcR(DEF)/VP16AD-βRXREF-LmUSPEF (Choristoneura fumiferana, UniProt O77240)
# assay-remarks: cell-based
# reported-conditions: maximum fold induction at any concentration relative to that of GS-E ligand; CHO 27-63 cells
This listing pairs compounds with measured 27-63 assay Rel Max FI.

compound | 27-63 assay Rel Max FI
CCc1c(C(=O)NN(C(=O)c2ccc(F)cc2)C(C)(C)C)ccc2c1OCOC2 | 0.371

### Prompt 27-63 assay Rel Max FI for CCc1c(OC)cccc1C(=O)NN(C(=O)c1cc(C)cc(C)c1)C(C)(C)CO[Si](C)(C)C(C)(C)C ?
### Response 0.01

### Prompt Okay, and CCc1c(C(=O)NN(C(=O)c2cc(C)cc(C)c2)C(CC)C(C)(C)C)ccc2c1OCCO2 (centres unmarked) ?
### Response 0.915

### Prompt Then what about the compound COc1cccc(C(=O)N(NC(=O)c2ccc3c(c2C)OCCO3)C(C)(C)C)c1 ?
### Response 0.873

---

# System: mutated ecdysone receptor-based gene switch
# assay-remarks: In vivo SEAP induction, ligand by IP injection
# Design: species or system C57BL/6 mouse
# reported-conditions: mouse serum, IP 2.6 μmol ligand 3 days after electroporation, day 2 after ligand
# Procedure: Applicants' ligands are useful in various applications including gene therapy, expression of proteins of interest in host cells, production of transgenic organisms, and cell-based assays. In vivo induction of a reporter enzyme with various ligands of the present invention was evaluated in a C57BL/6 mouse model system containing a gene switch. Each element of the gene switch was on a separate plasmid. […] Induction was evaluated by the amount of reporter protein expressed in the presence of ligand. […]
recorded-metric: Secreted Alkaline Phosphatase (percentage of GS ™-E ligand induction) Day 2

Guide cases for Secreted Alkaline Phosphatase (percentage of GS ™-E ligand induction) Day 2, answers given:
entry-smiles | readout-value
COc1cc(C(=O)N(NC(=O)c2ccc3c(c2C)OCCO3)C(C)(C)C#N)cc(OC)c1C | 8 percentage of GS ™-E ligand induction
Cc1c(C(=O)NN(C(=O)c2cc(F)c(F)c(F)c2)C(C)(C)C)ccc2c1CCCO2 | 74 percentage of GS ™-E ligand induction

Now look at this entry.
### Prompt Find the recorded Secreted Alkaline Phosphatase (percentage of GS ™-E ligand induction) Day 2 belonging to COc1ccc(C(=O)N(NC(=O)c2ccc3c(c2C)OCCO3)C(C)(C)C)c(OC)n1 and report it.
### Response 4 percentage of GS ™-E ligand induction

---

Reported Fold Induction, 27-63 Assay, 33 uM by item:
# measured-on: GAL4 DBD (1-147)-CfEcR(DEF)/VP16AD-βRXREF-LmUSPEF (Choristoneura fumiferana, UniProt O77240)
# assay-remarks: cell-based
# reported-conditions: 33 uM ligand; RLU ligand treated / RLU DMSO treated cells; average of two wells
// return a plain number; no unit text

Some entries whose results are on file:
compound | Fold Induction, 27-63 Assay, 33 uM
COc1cccc(C(=O)NN(C(=O)c2cc(C)ccc2Cl)C(C)(C)C)c1Cl [RG-101248] | 1033
CCCCC(N(NC(=O)c1ccc(CC)cc1)C(=O)c1cc(C)cc(C)c1)C(C)(C)C (stereo not shown) [RG-115840] | 263
Cc1ccc([N+](=O)[O-])c(C(=O)N(NC(=O)c2ccc3c(c2C)CCCO3)C(C)(C)C)c1 [RG-115664] | 1768

Now consider the entry below.
### Prompt Can you share its Fold Induction, 27-63 Assay, 33 uM? I mean this compound: CC(O)c1ccc(C(=O)NN(C(=O)c2cc(F)cc(F)c2)C(C)(C)C)cc1 (stereo not shown) [RG-100342]
### Response 1287

---

# Tested on: mutated ecdysone receptor-based gene switch
# assay-remarks: In vivo SEAP induction, ligand by IP injection
# Design: species or system C57BL/6 mouse
# reported-conditions: mouse serum, IP 2.6 μmol ligand, day 11 after ligand
recorded-metric: Secreted Alkaline Phosphatase (percentage of GS ™-E ligand induction) Day 11

### Prompt Which Secreted Alkaline Phosphatase (percentage of GS ™-E ligand induction) Day 11 value is on record for COc1cc(C(=O)N(NC(=O)c2ccc3c(c2C)OCCO3)C(C)(C)C)cc(OC)c1C [RG-115637] ?
### Response 0 percentage of GS ™-E ligand induction

---

# measured-on: Bombyx mori EcR (VP16 fusion, CVBE switch construct) (Bombyx mori)
# Sequence (P49881 86-606): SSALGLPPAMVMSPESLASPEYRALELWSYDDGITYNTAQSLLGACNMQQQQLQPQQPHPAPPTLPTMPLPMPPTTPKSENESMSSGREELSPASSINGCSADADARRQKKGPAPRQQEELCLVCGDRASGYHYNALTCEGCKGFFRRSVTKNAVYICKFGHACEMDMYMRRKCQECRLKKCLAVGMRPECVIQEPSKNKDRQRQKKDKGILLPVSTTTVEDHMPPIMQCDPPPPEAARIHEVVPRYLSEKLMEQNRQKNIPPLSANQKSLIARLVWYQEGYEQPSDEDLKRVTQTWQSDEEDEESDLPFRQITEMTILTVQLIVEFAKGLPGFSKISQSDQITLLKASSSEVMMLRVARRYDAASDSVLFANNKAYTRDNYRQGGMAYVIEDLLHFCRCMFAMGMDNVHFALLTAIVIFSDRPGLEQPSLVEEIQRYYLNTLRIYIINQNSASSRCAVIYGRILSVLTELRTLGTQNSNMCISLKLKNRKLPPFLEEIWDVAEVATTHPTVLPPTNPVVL
# Sequence (P19793 whole entry partner, the tested form may be a part): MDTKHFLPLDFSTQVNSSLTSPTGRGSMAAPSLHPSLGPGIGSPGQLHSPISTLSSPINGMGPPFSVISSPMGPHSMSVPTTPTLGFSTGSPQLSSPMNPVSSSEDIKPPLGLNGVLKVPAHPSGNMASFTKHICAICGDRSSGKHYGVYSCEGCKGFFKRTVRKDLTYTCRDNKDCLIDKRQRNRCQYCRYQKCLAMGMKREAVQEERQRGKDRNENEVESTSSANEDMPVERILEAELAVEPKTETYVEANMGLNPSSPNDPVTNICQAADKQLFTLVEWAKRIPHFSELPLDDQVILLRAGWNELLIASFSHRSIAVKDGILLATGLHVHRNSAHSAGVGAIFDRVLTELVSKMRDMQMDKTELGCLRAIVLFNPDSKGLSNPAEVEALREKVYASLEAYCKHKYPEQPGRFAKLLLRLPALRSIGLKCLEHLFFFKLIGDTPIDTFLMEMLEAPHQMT
# assay-remarks: Z3 Assay (HEK-293 cells with CVBE and 6XEcRE LacZ, β-galactosidase reporter)
# reported-conditions: maximum fold induction at any concentration relative to that of GS-E ligand; HEK-293 Z3 cells
Note to self: use yes only for Z3 assay Rel Max FI readings below 0.9; a reading exactly at 0.9 still gets no.

molecule | assigned-category
COc1cc(C(=O)N(NC(=O)c2ccc3c(c2C)CCCO3)C(C)(C)C)cc(OC)c1C | no
Cc1cc(C)cc(C(=O)N(NC(=O)c2cccc(OC(F)(F)F)c2C)C(C)(C)C)c1 | no
CCc1c(OC)cccc1C(=O)NN(C(=O)c1cc(C)ccc1[N+](=O)[O-])C(C)(C)C | no
Cc1ccc([N+](=O)[O-])c(C(=O)N(NC(=O)c2ccc3c(c2C)CCCO3)C(C)(C)C)c1 | yes

### Prompt Hello, is Z3 assay Rel Max FI of the following molecule strictly smaller than 0.9? CCc1c(C(=O)NN(C(=O)c2cc(F)ccc2F)C(C)(C)C)ccc2c1OCCO2
### Response yes

### Prompt Entry to check: Cc1c(C(=O)NN(C(=O)c2cccc(F)c2)C(C)(C)C)ccc2c1OCCO2
### Response no

### Prompt Then Cc1c(C(=O)NN(C(=O)c2ccc(F)cc2)C(C)(C)C)ccc2c1OCCO2 ?
### Response no

---

# measured-on: GAL4 DBD (1-147)-CfEcR(DEF)/VP16AD-βRXREF-LmUSPEF (Choristoneura fumiferana)
# assay-remarks: cell-based
# reported-conditions: maximum fold induction at any concentration relative to that of GS-E ligand; CHO 27-63 cells
# Procedure: GAL4 DBD (1-147)-CfEcR(DEF)/VP16AD-βRXREF-LmUSPEF: […] Luciferase reporter gene expression was measured 48 h after cell treatment using Bright-Glo™ Luciferase Assay System from Promega (E2650). Luminescence was detected at room temperature using a Dynex MLX microtiter plate luminometer. Each assay was conducted in two separate wells, and the two values were averaged. Fold inductions were calculated by dividing relative light units (“RLU”) in ligand treated cells with RLU in DMSO treated cells. […]
Measured 27-63 assay Rel Max FI of individual entries
The answer should be written as a number, with no unit following it.

Examples with their reported 27-63 assay Rel Max FI follow.
entry-smiles | measured-on | 27-63 assay Rel Max FI
CCc1ccc(C(=O)NN(C(=O)c2cc(C)cc(C)c2)C(C)(C)C)cc1Cl | GAL4 DBD (1-147)-CfEcR(DEF)/VP16AD-βRXREF-LmUSPEF (Choristoneura fumiferana) | 0.750
CCc1c(OC)cccc1C(=O)NN(C(=O)c1cc(C)cc(C)c1)C(C)(C)C | GAL4 DBD (1-147)-CfEcR(DEF)/VP16AD-βRXREF-LmUSPEF (Choristoneura fumiferana) | 1
CCc1c(OC)cccc1C(=O)NN(C(=O)c1cc(C)cc(C)c1)C(C)(C)C(=O)O | GAL4 DBD (1-147)-CfEcR(DEF)/VP16AD-βRXREF-LmUSPEF (Choristoneura fumiferana) | 0.00

Attention now shifts to the item below.
### Prompt What 27-63 assay Rel Max FI value was documented for this compound, Cc1cc(C)cc(C(=O)N(NC(=O)c2ccc3c(c2)CCCC3)C(C)(C)C)c1 ?
### Response 0.675

---

Attribute: Papp B→A at 2 h, 10 µM
# assay-remarks: Bi-directional permeability, CACO-2
# Format: in vitro ADME
# reported-conditions: human, Caco-2, pH 7, Caco-2, 10 μM, replicate 2; read-out: Papp, B-to-A Rep. 2
Answer format: numeric, ×10⁻⁶ cm/s implied, no suffix.

Example molecules with recorded Papp B→A at 2 h, 10 µM:
entry-smiles | Papp B→A at 2 h, 10 µM (×10⁻⁶ cm/s)
CCc1c(OC)cccc1C(=O)NN(C(=O)c1cc(C)cc(C)c1)C(C)(C)C | 23.7
CCc1ccc(C(=O)NN(C(=O)c2cc(C)cc(C)c2)C(C)(C)C)cc1 | 19.7

Attention now turns to another entry.
### Prompt Request the reported Papp B→A at 2 h, 10 µM associated with COc1cccc(C(=O)NN(C(=O)c2cc(C)cc(C)c2)C(C)(C)C)c1C
### Response 28.2

---

# Test system: Caco-2 monolayers
# assay-remarks: Bi-directional permeability, CACO-2
# Assay type: in vitro ADME
# reported-conditions: Caco-2
recorded-metric: Papp, A-to-B Avg

Reference set, count: 6
molecule | measured-on | readout-value
CCc1c(OC)cccc1C(=O)NN(C(=O)c1ccccc1S(=O)(=O)O)C(C)(C)C [RG-115555] | Caco-2 monolayers | 0.18 10^−6 cm/s
CCc1c(C(=O)NN(C(=O)c2ccc(F)c(C(F)(F)F)c2)C(C)(C)C)ccc2c1OCCO2 [RG-115280] | Caco-2 monolayers | 1.27 10^−6 cm/s
COc1cnccc1C(=O)N(NC(=O)c1cccc(O)c1C)C(C)(C)C [RG-115595] | Caco-2 monolayers | 19.2 10^−6 cm/s
CCCC(N(NC(=O)c1cccc(OC)c1C)C(=O)c1cc(C)cc(C)c1)C(C)(C)C (stereo not shown) [RG-115823] | Caco-2 monolayers | 17.6 10^−6 cm/s
CCc1c(OC)cccc1C(=O)NN(C(=O)c1ccccc1[S+](C)[O-])C(C)(C)C (stereo not shown) [RG-115199] | Caco-2 monolayers | 30.6 10^−6 cm/s
CC(O)c1ccc(C(=O)NN(C(=O)c2cc(CO)cc(CO)c2)C(C)(C)C)cc1 (stereo not shown) [RG-100021] | Caco-2 monolayers | 0.22 10^−6 cm/s

### Prompt Please report the recorded Papp, A-to-B Avg for CC(=O)c1ccc(C(=O)NN(C(=O)c2cc(C(=O)O)cc(C(=O)O)c2)C(C)(C)C)cc1 [RG-100150] .
### Response 0.18 10^−6 cm/s
